- measuredTarget: Nav1.5 (Homo sapiens, UniProt Q14524)
- Sequence (Q14524 whole entry): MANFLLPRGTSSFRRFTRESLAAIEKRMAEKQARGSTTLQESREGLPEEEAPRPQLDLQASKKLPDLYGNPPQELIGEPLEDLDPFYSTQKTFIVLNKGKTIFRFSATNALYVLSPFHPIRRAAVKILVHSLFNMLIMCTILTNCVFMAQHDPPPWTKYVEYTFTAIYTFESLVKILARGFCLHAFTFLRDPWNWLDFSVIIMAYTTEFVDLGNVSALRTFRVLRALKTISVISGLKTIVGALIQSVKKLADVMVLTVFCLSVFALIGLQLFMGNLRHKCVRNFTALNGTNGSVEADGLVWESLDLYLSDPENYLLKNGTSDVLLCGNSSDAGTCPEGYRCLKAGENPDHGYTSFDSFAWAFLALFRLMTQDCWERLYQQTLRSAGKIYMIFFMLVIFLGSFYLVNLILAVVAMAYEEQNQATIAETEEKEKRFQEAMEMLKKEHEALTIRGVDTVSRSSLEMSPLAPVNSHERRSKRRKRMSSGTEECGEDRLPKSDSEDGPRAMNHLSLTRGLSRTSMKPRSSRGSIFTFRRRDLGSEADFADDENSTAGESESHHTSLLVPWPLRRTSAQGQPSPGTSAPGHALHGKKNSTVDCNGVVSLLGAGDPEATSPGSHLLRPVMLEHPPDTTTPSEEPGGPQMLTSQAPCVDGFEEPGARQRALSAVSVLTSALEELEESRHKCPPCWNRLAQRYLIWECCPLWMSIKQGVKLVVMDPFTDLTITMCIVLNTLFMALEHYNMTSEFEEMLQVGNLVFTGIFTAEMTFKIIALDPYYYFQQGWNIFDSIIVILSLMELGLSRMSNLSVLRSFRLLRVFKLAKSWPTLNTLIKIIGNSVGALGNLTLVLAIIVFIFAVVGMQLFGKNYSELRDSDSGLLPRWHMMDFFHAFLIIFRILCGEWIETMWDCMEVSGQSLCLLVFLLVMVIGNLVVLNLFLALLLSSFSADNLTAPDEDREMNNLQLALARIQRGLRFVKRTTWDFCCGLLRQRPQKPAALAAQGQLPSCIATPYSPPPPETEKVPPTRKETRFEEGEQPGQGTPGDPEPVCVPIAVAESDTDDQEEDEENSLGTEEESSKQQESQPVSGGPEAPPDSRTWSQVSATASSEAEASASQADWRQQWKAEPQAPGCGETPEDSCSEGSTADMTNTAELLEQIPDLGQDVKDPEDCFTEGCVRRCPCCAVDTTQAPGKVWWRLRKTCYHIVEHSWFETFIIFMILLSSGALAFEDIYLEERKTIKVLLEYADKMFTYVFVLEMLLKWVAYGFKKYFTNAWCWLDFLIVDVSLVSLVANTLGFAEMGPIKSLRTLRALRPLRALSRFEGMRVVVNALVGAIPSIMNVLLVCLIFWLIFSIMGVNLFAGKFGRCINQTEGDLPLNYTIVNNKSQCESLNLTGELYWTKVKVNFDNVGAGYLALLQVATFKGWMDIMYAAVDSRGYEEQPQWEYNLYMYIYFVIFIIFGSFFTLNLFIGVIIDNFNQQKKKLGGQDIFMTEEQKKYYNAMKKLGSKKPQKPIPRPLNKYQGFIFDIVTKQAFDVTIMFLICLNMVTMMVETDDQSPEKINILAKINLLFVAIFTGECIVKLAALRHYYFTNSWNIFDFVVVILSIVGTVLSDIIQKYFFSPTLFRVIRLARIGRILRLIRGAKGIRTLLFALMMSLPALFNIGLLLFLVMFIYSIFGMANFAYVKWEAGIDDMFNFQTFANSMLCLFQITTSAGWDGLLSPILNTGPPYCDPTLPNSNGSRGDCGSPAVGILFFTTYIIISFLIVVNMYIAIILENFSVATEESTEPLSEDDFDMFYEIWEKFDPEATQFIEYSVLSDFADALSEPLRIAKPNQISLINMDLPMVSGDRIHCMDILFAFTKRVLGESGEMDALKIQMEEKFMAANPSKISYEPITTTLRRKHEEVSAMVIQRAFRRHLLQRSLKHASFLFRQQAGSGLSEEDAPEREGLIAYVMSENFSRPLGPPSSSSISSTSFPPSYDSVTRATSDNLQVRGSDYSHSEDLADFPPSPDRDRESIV
- runDescription: Inhibition of Nav1.5 (unknown origin) at 50 uM relative to control
endpoint: inhibition at 50 µM

Given C=CC(=O)N1CC2(CC(n3nc(-c4ccc5c(cnn5C)c4)c(-c4c(Cl)c(C)cc5[nH]ncc45)c3C)C2)C1 [OPNURASIB] , state its recorded inhibition at 50 µM.
12%

* * *

- runDescription: Cmax in human MIA PaCa-2 cells xenografted mouse at 30 mg/kg, po
- Assay type: ADME, organism-based
- Design: dose 30 mg/kg, route po
- testParameters: in vivo
endpoint: Cmax (nM)
Write down the numeric answer in nM and omit the unit.

Record excerpt, results attached:
testSmiles	Cmax, nM
C=CC(=O)N1CC2(CC(n3nc(-c4ccc5c(cnn5CCN(C)C)c4)c(-c4c(Cl)c(C)cc5[nH]ncc45)c3C)C2)C1	300
C=CC(=O)N1CC2(CC(n3nc(-c4ccc5nn(CCOC)cc5c4)c(-c4c(Cl)c(C)cc5[nH]ncc45)c3C)C2)C1	4300
C=CC(=O)N1CC2(CC(n3nc(-c4ccc5c(cnn5C)c4)c(-c4c(Cl)c(C)cc5[nH]ncc45)c3C)C2)C1	1700

Bench note: what Cmax did C=CC(=O)N1CC2(CC(n3nc(-c4ccc5c(cnn5CCOC)c4)c(-c4c(Cl)c(C)cc5[nH]ncc45)c3C)C2)C1 show?
600
